From: paper PMC13397619

Overview of recorded enrichment for various variants
B1: NLV3 TCR beta chain (CDR3β only) (parent)
chain: ASSPTGGSPSPLH
partner: MLVPMVATV

# Variants of: B1
# assayRemarks: T-Switch: Jurkat TCRβ−/− cells expressing a CDR3 saturation-mutagenesis library, stained with two peptide-HLA-A*02:01 tetramers (original and novel peptide) plus anti-CD3, FACS-sorted into four gates, gDNA sequenced
# conditionInfo: with HLA-A*02:01 with peptide … (NLV 3-1, the original bait), tetramers 1 µg/mL, 30 min on ice, DP and SW gates expanded about 10 days between rounds ('two to three rounds of selection' in the Methods), gate SP: higher = more of the variant in the gate that binds the original peptide and not the novel one = retained original binding. Fold enrichment of the CDR3 variant in one FACS gate of a two-tetra, unresolved parent, parent is a CDR3 fragment, scale: fold enrichment, numbering: sequential-on-construct, sequence …
Give your answer as a number; write no unit.

A selection of reference data follows.
{"variantString": "[…] (CDR3 as printed); P11M derived by comparing it with the table's wild-type CDR3 ASSPTGGSPSPLH", "enrichment": 7.79}
{"variantString": "[…] (CDR3 as printed); S10A derived by comparing it with the table's wild-type CDR3 ASSPTGGSPSPLH", "enrichment": 10.5}
{"variantString": "[…] (CDR3 as printed); A1R derived by comparing it with the table's wild-type CDR3 ASSPTGGSPSPLH", "enrichment": 0}
{"variantString": "[…] (CDR3 as printed); L12D derived by comparing it with the table's wild-type CDR3 ASSPTGGSPSPLH", "enrichment": 0}

For the variant shown here, […] (CDR3 as printed); T5K derived by comparing it with the table's wild-type CDR3 ASSPTGGSPSPLH , give the reported enrichment.
0

Please give the result for […] (CDR3 as printed); H13V derived by comparing it with the table's wild-type CDR3 ASSPTGGSPSPLH too.
5.71

Please give the result for […] (CDR3 as printed); T5G derived by comparing it with the table's wild-type CDR3 ASSPTGGSPSPLH too.
0

Please give the result for […] (CDR3 as printed); S2I derived by comparing it with the table's wild-type CDR3 ASSPTGGSPSPLH too.
0

Please give the result for […] (CDR3 as printed); G7F derived by comparing it with the table's wild-type CDR3 ASSPTGGSPSPLH too.
0
